- MEASUREMENT_TARGET: T1, mCMKLR1-HA on L1.2 transfectants (mouse, UniProt P97468 1-371)
- T1 sequence (looked up): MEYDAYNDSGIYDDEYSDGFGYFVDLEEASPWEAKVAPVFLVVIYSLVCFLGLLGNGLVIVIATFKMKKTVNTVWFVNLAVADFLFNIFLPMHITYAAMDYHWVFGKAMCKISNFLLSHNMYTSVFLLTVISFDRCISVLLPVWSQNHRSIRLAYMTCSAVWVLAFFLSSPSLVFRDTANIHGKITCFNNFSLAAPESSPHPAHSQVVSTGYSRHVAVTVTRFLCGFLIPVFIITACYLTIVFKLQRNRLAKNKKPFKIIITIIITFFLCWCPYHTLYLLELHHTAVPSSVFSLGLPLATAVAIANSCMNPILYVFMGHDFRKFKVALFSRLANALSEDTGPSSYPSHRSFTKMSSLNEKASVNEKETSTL
- EXPERIMENTAL_DETAILS: radioligand binding
REPORTED_METRIC: pEC50
Please report pEC50 as the negative decimal logarithm of the molar concentration, giving only the number.

Given item YFPGQFAFS [bioactive 9-mer carboxyl-terminal chemerin peptide (residues 149–157, YFPGQFAFS)] , the value recorded as its pEC50 is 7.58
